# TESTED ON: HLA-DP4 molecule DPA1*0103/DPB1*0401 (DP401) (Homo sapiens, UniProt P04440+P20036)
# Construct: purified from various human B lymphocyte lines transformed with the Epstein Barr virus (EBV), which are homozygotes for DP; endogenous in cells
# Sequence (P20036 29-260): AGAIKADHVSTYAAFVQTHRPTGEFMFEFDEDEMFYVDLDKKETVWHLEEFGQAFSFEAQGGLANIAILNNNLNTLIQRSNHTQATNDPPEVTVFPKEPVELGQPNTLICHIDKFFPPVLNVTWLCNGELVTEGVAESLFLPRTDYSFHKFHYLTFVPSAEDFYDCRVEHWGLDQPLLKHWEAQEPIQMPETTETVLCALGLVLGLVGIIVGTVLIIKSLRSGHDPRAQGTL
# Sequence (P04440 30-258): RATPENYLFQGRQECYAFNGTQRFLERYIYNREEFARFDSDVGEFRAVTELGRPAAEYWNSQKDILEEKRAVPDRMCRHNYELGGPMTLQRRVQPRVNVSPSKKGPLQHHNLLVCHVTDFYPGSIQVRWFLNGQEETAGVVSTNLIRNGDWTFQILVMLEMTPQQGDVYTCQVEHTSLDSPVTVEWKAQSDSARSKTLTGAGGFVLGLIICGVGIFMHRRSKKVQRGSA
# ASSAY COMMENT: biochemical
# Format: binding
# ASSAY SETUP: FIG. 1, in words; tracer bUNK1 10 nM
PARAMETER: binding to the HLA-DP*0401 molecule

DVEVYRAVTPLGPPD [DQB 43-57, reference compound] : do not bind
PKYVKQNTLKLAT [HA 306-318, reference compound] : do not bind
EPRAPWIEQEGPEYWDQE [HCI 46-63, reference compound] : do not bind

----------
Exercise: state measured IC50 for each of the compounds provided.
# TESTED ON: HLA-DP4 molecule DPA1*0103/DPB1*0401 (DP401) (Homo sapiens, UniProt P04440+P20036)
# Construct: purified from various human B lymphocyte lines transformed with the Epstein Barr virus (EBV), which are homozygotes for DP; endogenous in cells
# Sequence (P20036 29-260): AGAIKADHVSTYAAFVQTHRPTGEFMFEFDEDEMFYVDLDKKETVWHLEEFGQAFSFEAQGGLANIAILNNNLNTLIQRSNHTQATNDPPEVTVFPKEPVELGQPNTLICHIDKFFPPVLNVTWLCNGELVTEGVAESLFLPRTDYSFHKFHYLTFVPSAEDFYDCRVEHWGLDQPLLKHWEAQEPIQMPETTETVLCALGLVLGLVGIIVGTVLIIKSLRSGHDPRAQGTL
# Sequence (P04440 30-258): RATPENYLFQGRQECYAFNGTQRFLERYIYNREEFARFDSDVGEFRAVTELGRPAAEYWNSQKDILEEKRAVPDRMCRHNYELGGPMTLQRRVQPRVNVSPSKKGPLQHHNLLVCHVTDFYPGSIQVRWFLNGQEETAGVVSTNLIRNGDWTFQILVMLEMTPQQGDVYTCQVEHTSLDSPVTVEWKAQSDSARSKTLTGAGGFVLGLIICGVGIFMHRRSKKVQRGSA
# ASSAY COMMENT: biochemical
# Type: binding
# ASSAY SETUP: DP*0401 IC50 (nM), Table XV; HLA-DP4-binding activity

Recorded IC50, per entry:
CC(C)C[C@H](NC(=O)[C@H](CCCCN)NC(=O)[C@H](CCC(=O)O)NC(=O)[C@H](Cc1ccc(O)cc1)NC(=O)[C@H](C)N)C(=O)N[C@@H](CO)C(=O)N[C@@H](C)C(=O)N[C@@H](CCC(=O)O)C(=O)N[C@@H](CCC(N)=O)C(=O)N[C@@H](CO)C(=O)N1CCC[C@H]1C(=O)N1CCC[C@H]1C(=O)N1CCC[C@H]1C(=O)N[C@@H](Cc1ccc(O)cc1)C(=O)N[C@@H](CO)C(=O)N1CCC[C@H]1C(=O)O : > 10000 nM
CC(C)C[C@H](NC(=O)[C@H](Cc1ccc(O)cc1)NC(=O)[C@H](CC(N)=O)NC(=O)[C@H](CCC(=O)O)NC(=O)[C@H](CCC(N)=O)NC(=O)[C@@H](NC(=O)[C@H](Cc1ccccc1)NC(=O)[C@H](Cc1c[nH]cn1)NC(=O)[C@H](CCC(N)=O)NC(=O)[C@@H](NC(=O)[C@H](CC(C)C)NC(=O)[C@@H](N)CC(C)C)[C@@H](C)O)C(C)C)C(=O)N[C@@H](CCC(=O)O)C(=O)N[C@@H](Cc1ccc(O)cc1)C(=O)O : 250 nM

**Q:** Which IC50 reading was recorded for the compound CC[C@H](C)[C@H](NC(=O)[C@H](Cc1ccccc1)NC(=O)[C@H](Cc1c[nH]cn1)NC(=O)[C@H](C)NC(=O)[C@H](CC(=O)O)NC(=O)[C@H](CCC(=O)O)NC(=O)[C@H](CCCNC(=N)N)NC(=O)[C@@H]1CCCN1C(=O)[C@@H](N)CCSC)C(=O)N[C@@H](Cc1ccc(O)cc1)C(=O)NCC(=O)N[C@@H](Cc1ccc(O)cc1)C(=O)N1CCC[C@H]1C(=O)N[C@@H](CCCCN)C(=O)N[C@@H](CCCCN)C(=O)NCC(=O)N[C@@H](Cc1c[nH]cn1)C(=O)NCC(=O)N[C@@H](Cc1c[nH]cn1)C(=O)N[C@@H](CO)C(=O)O ?
**A:** > 10000 nM
